Hello, the source for this data is patent US20150266977A1, in case you need it.

Consider the following binders and their measured Kd readings.
# Tested on: T1, recombinant cynomolgus monkey sclerostin (cynomolgus monkey)
# T1 construct: also called cyno sclerostin; Cyno sclerostin
# Protocol description: SPR
Provide only the numeric value, understood in pM.

• AE10-6-AM6 (antibody, V domains shown, converted into IgG; also called rHC + LC S4 clone 119) VH: EVQLVQSGAEVKKPGASVKVSCKVSGYTLSELSMHWVRQAPGKGLEWMGGFDPEGGETIYAQKFQGRVTMTEDTSTDTAYMELSSLRSEDTAVYYCATDTEGYWEKFFQHWGQGTLVTVSS VL: QAVVTQEPSLTVSPGGTVTLTCGSSTGAVTIDHYPYWFQQKPGQAPRTLISDTDDKHSWTPARFSGSLLGGKAALTLSGAQPEDEAEYYCLLDYGGTFVFGGGTKLTVL = 0.88

Kindly consider the entry below.
Query block: # query: Kd of entry AE10-6-AM8 (antibody, V domains shown, converted into IgG) VH: EVQLVQSGAEVKKPGASVKVSCKVSGYTLSELSIHWVRQAPGKGLEWMGGFDPEDGETIYAQKFQGRVTMTEDTSTDTAYMELSSLRSEDTAVYYCATDSAGYWYKFFQHWGQGTLVTVSS VL: QAVVTQEPSLTVSPGGTVTLTCGSSTGAVTIDHYPYWFQQKPGQAPRTLISDTDDKHSWTPARFSGSLLGGKAALTLSGAQPEDEAEYYCLLDYGGSFVFGGGTKLTVL
Result block: 0.39
